Readings of CL free for the listed compounds
ASSAY PROCEDURE: Unbound hepatic clearance in mouse liver microsomes
Assay type: ADME, Microsome
Could you give me the number in mL/min/kg? Just the number is fine.

Inquiry: Entry CCNC(=O)c1cc2c(-c3cc(CO)ccc3Oc3c(C)cccc3C)cn(C)c(=O)c2[nH]1 has what CL free?
Reply text: 2330

Inquiry: Entry Cc1cccc(C)c1Oc1ccc(C(C)(C)O)cc1-c1cn(C)c(=O)c2[nH]c(C(=O)NC(C)(C)C)cc12 has what CL free?
Reply text: 4330

Inquiry: Entry CCNC(=O)c1cc2c(-c3cc(S(=O)(=O)CC)ccc3Oc3c(C)cccc3C#N)cn(C)c(=O)c2[nH]1 has what CL free?
Reply text: 817

Inquiry: Entry CCNC(=O)c1cc2c(-c3cc(S(=O)(=O)CC)ccc3Oc3ccccc3C)cn(C)c(=O)c2[nH]1 has what CL free?
Reply text: 1100

---

ASSAY TARGET: Bromodomain-containing protein 4 (Homo sapiens, UniProt O60885)
ASSAY PROCEDURE: Inhibition of human N-terminal His6 tagged BRD4 BD2 (352 to 457) residues expressed in Escherichia coli BL21(DE3) cells after 1 hr by TR-FRET assay
ENDPOINT LABEL: pKi
Would you please state pKi, meaning minus log10 of the concentration in mol/L, as a bare number?

# MOL, ENDPOINT LABEL, MEASUREMENT
rows = [
    ("CCNC(=O)c1cc2c(-c3cc(S(=O)(=O)CC)ccc3-c3c(C)cccc3C)cn(C)c(=O)c2[nH]1", "pKi", 7.66),
]

Inquiry: Entry CCNC(=O)c1cc2c(-c3cc(S(=O)(=O)CC)ccc3Oc3c(C)cc(F)cc3C)cn(C)c(=O)c2[nH]1 has what pKi?
Reply text: 8.89

Inquiry: Entry CNC(=O)c1cc2c(-c3cc(C(C)(C)O)ccc3Oc3c(C)cc(F)cc3C)cn(C)c(=O)c2[nH]1 has what pKi?
Reply text: 9.00

---

Readings of Papp for the listed molecules
ASSAY PROCEDURE: Permeability in dog MDCK cells by PAMPA
Assay type: ADME, cell-based, Canis lupus familiaris
CONDITIONS USED: read-out: permeability
Could you give me the number in ×10⁻⁶ cm/s? Just the number is fine.

Reference set (3 entries):
# MOL, MEASUREMENT
data = [
    ("CCNC(=O)c1ccc(Oc2c(C)cccc2C)c(-c2cn(C)c(=O)c3[nH]c(C(=O)NCC)cc23)c1", 2.63),
    ("CCNC(=O)c1cc2c(-c3cc(S(=O)(=O)CC)ccc3-c3c(C)cccc3C)cn(C)c(=O)c2[nH]1", 9),
    ("CCNC(=O)c1cc2c(-c3cc(S(=O)(=O)CC)ccc3-c3ccccc3C)cn(C)c(=O)c2[nH]1", 10.3),
]

Consider the additional molecule presented here.
Inquiry: Entry Cc1cc(F)cc(C)c1Oc1ccc(C(C)(C)O)cc1-c1cn(C)c(=O)c2[nH]c(C(=O)NC(C)(C)C(F)(F)F)cc12 has what Papp?
Reply text: 0.57

---

Readings of CL free for the listed compounds
ASSAY PROCEDURE: Unbound hepatic clearance in mouse liver microsomes
Type: ADME, Microsome
Could you give me the number in mL/min/kg? Just the number is fine.

Reference set (2 entries):
# MOL, UNITS, CL free
records = [
    ("CCN(C)C(=O)c1cc2c(-c3cc(S(C)(=O)=O)ccc3Oc3ccc(F)cc3F)cn(C)c(=O)c2[nH]1", "mL/min/kg", 288),
    ("CCNC(=O)c1cc2c(-c3cc(S(=O)(=O)CC)ccc3-n3ccc4cccc(C)c43)cn(C)c(=O)c2[nH]1", "mL/min/kg", 1830),
]

Inquiry: Entry CCNC(=O)c1cc2c(-c3cc(S(=O)(=O)CC)ccc3Oc3c(C)cc(F)cc3C)cn(C)c(=O)c2[nH]1 has what CL free?
Reply text: 917

Inquiry: Entry CCNC(=O)c1cc2c(-c3cc(C(C)(C)O)ccc3Oc3c(C)cccc3C)cn(C)c(=O)c2[nH]1 has what CL free?
Reply text: 2830

Where do the numbers come from? From ChEMBL document CHEMBL4342522.
